Provide the recorded T/C for the entries that follow.
test system: L1210 leukemia ip in BDF1 mice, survival T/C; assay: NCI In Vivo Anticancer Drug Screen. Data for tumor model L1210 Leukemia (intraperitoneal) in B6D2F1 (BDF1) mice; details: endpoint: mean survival time; dose: 200.0 mg/kg/injection; schedule: Q04DX002 (ip); vehicle: Klucel (hydroxypropylcellulose) (HPC); higher = longer survival
Inconclusive results and toxic doses are left out.

Examples with their reported T/C follow.
[
  {
    "Compound": "CC(=O)OCC1OC(OCC2OC(Sc3ccccc3)C(OC(C)=O)C(OC(C)=O)C2OC(C)=O)C(OC(C)=O)C(OC(C)=O)C1OC(C)=O (stereo not given)",
    "Data value": "86 % of control"
  },
  {
    "Compound": "O=S(=O)(Cc1cccc(Cl)c1)c1ccccc1",
    "Data value": "107 % of control"
  },
  {
    "Compound": "CCc1nc(N)ncc1-c1ccc([N+](=O)[O-])cc1O",
    "Data value": "100 % of control"
  },
  {
    "Compound": "Cc1nc(N)[nH]c(=O)c1CCCNS(=O)(=O)c1ccc(C(=O)O)cc1",
    "Data value": "88 % of control"
  }
]

// switching to the query compound
Param item = O=C(O)CCn1c(=O)n(CCC(=O)O)c(=O)n(CCC(=O)O)c1=O ; retrieve measured T/C.
93 % of control

###

tested on: L1210 leukemia ip in BDF1 mice, survival T/C; experiment: NCI In Vivo Anticancer Drug Screen. Data for tumor model L1210 Leukemia (intraperitoneal) in B6D2F1 (BDF1) mice; settings: endpoint: mean survival time; dose: 400.0 mg/kg/injection; schedule: Q01DX001 (ip); vehicle: Klucel (hydroxypropylcellulose) (HPC); higher = longer survival
Inconclusive results and toxic doses are left out.
Provide the recorded T/C for the entries that follow.

Would you be so kind as to report T/C for each listed record?
1. CCOC(=O)c1ccc(Cn2c(C)cc(=O)n(Cc3ccc(C(=O)OCC)cc3)c2=O)cc1
2. CO/N=C/c1ccc([N+](=O)[O-])cc1
3. O=C1OC(=O)c2ccc3c4ccc5c6c(ccc(c7ccc1c2c73)c64)C(=O)OC5=O

["91 % of control", "98 % of control", "95 % of control"]

Would you be so kind as to report T/C for each listed record?
1. Cc1[nH]c(=O)n(C)c(=O)c1C
2. NOCc1cc2c(cc1Cl)OCO2
3. COC(=O)c1cc(=O)c2c(=O)n(Cc3ccccc3)c(=O)n(Cc3ccccc3)c2[nH]1
4. Cc1ccc(S(=O)(=O)N(C)c2cc(Cl)c(C(N)=O)c(Cl)c2)cc1
5. CCCCCCC1CCC(C(=O)O)CC1 (stereo not drawn)

["104 % of control", "100 % of control", "118 % of control", "100 % of control", "97 % of control"]

Would you be so kind as to report T/C for each listed record?
1. CNc1nnnn1-c1ccccc1C
2. CCCCCCCCCCCCCCCCOc1c(Br)cc(Br)cc1Br
3. CCOP(=O)(OCC)/C(=C\c1ccccc1)C(=O)c1ccccc1

105 % of control
105 % of control
106 % of control

Would you be so kind as to report T/C for each listed record?
1. CCOC(=O)c1[nH]c(-c2ccccc2)c(C=O)c1-c1ccccc1
2. O=C1C(=O)c2c(nc3ccccn23)-c2ccccc21

["100 % of control", "105 % of control"]

###

tested on: L1210 leukemia ip in BDF1 mice, survival T/C; assay: NCI In Vivo Anticancer Drug Screen. Data for tumor model L1210 Leukemia (intraperitoneal) in B6D2F1 (BDF1) mice; conditions: endpoint: mean survival time; dose: 400.0 mg/kg/injection; schedule: Q01DX009 (ip); vehicle: Klucel (hydroxypropylcellulose) (HPC); higher = longer survival
Inconclusive results and toxic doses are left out.
Provide the recorded T/C for the entries that follow.

Examples with their reported T/C follow.
[
  {
    "Smiles input": "O=C(O)c1c(Br)c(Br)c(Br)c(Br)c1C(=O)Nc1cccc(C(F)(F)F)c1",
    "Tested target": "L1210 leukemia ip in BDF1 mice, survival T/C",
    "T/C": "107 % of control"
  },
  {
    "Smiles input": "Cc1ccc(C)c(NC(=O)OCCOc2ccccc2)c1",
    "Tested target": "L1210 leukemia ip in BDF1 mice, survival T/C",
    "T/C": "91 % of control"
  },
  {
    "Smiles input": "Nc1cccc2c1C(=O)c1cccc(NC(=O)c3ccccc3)c1C2=O",
    "Tested target": "L1210 leukemia ip in BDF1 mice, survival T/C",
    "T/C": "99 % of control"
  },
  {
    "Smiles input": "O=C(Nc1ccc(O)cc1)c1ccc([N+](=O)[O-])cc1",
    "Tested target": "L1210 leukemia ip in BDF1 mice, survival T/C",
    "T/C": "100 % of control"
  },
  {
    "Smiles input": "O=C(O)c1c(Br)c(Br)c(Br)c(Br)c1C(=O)Nc1ccc(Cl)cc1C(F)(F)F",
    "Tested target": "L1210 leukemia ip in BDF1 mice, survival T/C",
    "T/C": "102 % of control"
  }
]

// switching to the query compound
Param item = CC(=O)Nc1cccc2ccc([N+](=O)[O-])cc12 ; retrieve measured T/C.
98 % of control

###

test system: L1210 leukemia ip in BDF1 mice, survival T/C; experiment: NCI In Vivo Anticancer Drug Screen. Data for tumor model L1210 Leukemia (intraperitoneal) in B6D2F1 (BDF1) mice; settings: endpoint: mean survival time; dose: 100.0 mg/kg/injection; schedule: Q04DX003 (ip); vehicle: Klucel (hydroxypropylcellulose) (HPC); higher = longer survival
Toxic doses and inconclusive results are not listed.
Observation type: T/C

[
  {
    "Compound": "CC1CC(C)CC(NC(=O)NCCCl)C1 (stereo not drawn)",
    "Observation type": "T/C",
    "Data value": "103 % of control"
  }
]

Would you be so kind as to report T/C for each listed record?
1. CCOCCN=Cc1c[nH]c2ccccc12
2. CC(=O)NC1CCC2CCCCC2C1 (stereo not drawn)
3. CCOC(=O)c1cnc2onc(C)c2c1Nc1cccc(C(F)(F)F)c1
4. c1ccc2cc(SCN3CCOCC3)ccc2c1
5. Cc1cccc(NC(=O)COc2ccc(Cl)cc2)c1C

1. 98 % of control
2. 97 % of control
3. 90 % of control
4. 97 % of control
5. 92 % of control

Would you be so kind as to report T/C for each listed record?
1. O=c1[nH][nH]c(=O)c2[nH]cnc12
2. COc1ccccc1NC(=O)Nc1ccc(SC)cc1
3. N/C(=C\C(=O)c1ccccc1)C(=O)c1ccccc1
4. O=C(Nc1ccccc1C(=O)N/N=C/c1c(O)ccc2ccccc12)c1ccccc1Cl
5. COc1ccc(C(=O)/C=C/c2ccc(OC)c(Br)c2)cc1
6. C#CCCCCCCCCCC(=O)OC
7. CCNC(=O)Nc1ccc(C)cc1C
8. CCOC(=O)C(C)C1=CCCc2c(C)ccc(C)c21 (stereo not drawn)

["104 % of control", "91 % of control", "103 % of control", "100 % of control", "95 % of control", "103 % of control", "96 % of control", "98 % of control"]

Would you be so kind as to report T/C for each listed record?
1. Cc1cc(S(=O)(=O)F)ccc1NC(=O)NCc1ccc([N+](=O)[O-])cc1Cl
2. O=C(O)C1CCOCC1
3. O=c1c2ccccc2cc2ccccn12
4. CCCCCCCCCCCCCCCCOc1ccc(S(=O)(=O)Nc2cc(C(=O)OC)cc(C(=O)OC)c2)cc1[N+](=O)[O-]

1. 112 % of control
2. 96 % of control
3. 95 % of control
4. 93 % of control

Would you be so kind as to report T/C for each listed record?
1. Nc1ccc2c(c1)C(=O)c1cc(N)ccc1-2
2. O=[N+]([O-])c1ccc(-c2cnc(Nc3ccc(Cc4ccc(Nc5ncc(-c6ccc([N+](=O)[O-])cc6)s5)c(Cl)c4)cc3Cl)s2)cc1

103 % of control
98 % of control

###

Provide the recorded T/C for the entries that follow.
system: L1210 leukemia ip in BDF1 mice, survival T/C; assay: NCI In Vivo Anticancer Drug Screen. Data for tumor model L1210 Leukemia (intraperitoneal) in B6D2F1 (BDF1) mice; details: endpoint: mean survival time; dose: 400.0 mg/kg/injection; schedule: Q04DX003 (ip); vehicle: saline with Tween-80; higher = longer survival
Inconclusive results and toxic doses are left out.

Would you be so kind as to report T/C for each listed record?
1. CC(C)CCCC(C)C1CCC2C3CC(=O)NC45CC4CCC5(C)C3CCC12C (stereo not drawn)
2. Cc1ccccc1C(O)c1cnc(C)n1Cc1ccccc1 (stereo not drawn)
3. CCOC(=O)C1=C(O)c2c(sc(C)c2-c2ccccc2)N(S(=O)(=O)c2ccc(C)cc2)CC1

92 % of control
97 % of control
98 % of control
